method_notes: yeast display, Sf9 membrane polyspecificity reagent, FACS + sequencing; frameworks hold sequencing errors
value_kind: polyreactivity (PSR sort gate)

{"residue_string": "QVQLVESGGGLVQAGGSLRISSAASGRTFQTNVMGWYRQAPGKERELVAAISKTGGRTYYADSVKGRFTISRDNAKNTVYLQMNSLNPEDTAVYYCAADSSGYEDYDYWGQGTQVTVSS", "result": "high polyreactivity"}
{"residue_string": "QVQLVESGGGLVQAGGSLRLSCAASGFIFAEYAMGWYRQATGKERELDAGITSGGSTSYADSVKGRFTISRDNAKNTVYLQMTSLKPDATAVYYCAATWYYHYNDWKHWYEYGYWGLGTQVTVSS", "result": "low polyreactivity"}
{"residue_string": "QVQLVESGGGLVQAGGSLRLSCAASGSTFGPYAMGWYRQAPGKERELVATISGSGSSTYYADSVKGRFTISRDNAKNTVYLQMNSLKPEDTAVYYCATDLYFDLRYDYWGQGTQVTVSS", "result": "low polyreactivity"}
{"residue_string": "QVQLVESGGGLVQAGGSLRLSCAASGFIFGINAMGWSRQAPGKERELVAAISRSGGRTYYADSVKGRCTISRDNAKNTVYLQMNSLKPEDTAVYYCAADKASYTNYDGDSWGQGTQVTVSS", "result": "high polyreactivity"}
{"residue_string": "QVQLVESGGGLVQAGGSLRLSCAASGSIFGINVMGWYRHAPGKDREFVAAITSGTSTYYADSVKGRFTISRDNAKNSVYLQMNSLKPEDTAVYYCAALWSSRFVVHPQWYDYWGQGTQVTVSS", "result": "low polyreactivity"}
{"residue_string": "QGQLVESGGGLVQAGGSLRLSCAASGSTFDYYVMGWYRQAPRKERELVAAISSGDSTNYADSVKGRFTISRDNAKNTVYLQMNSLKPEDTAVSYCAAEYTVHYDYWGQGTQVTVSS", "result": "low polyreactivity"}

Look at this sequence and give its reported polyreactivity (PSR sort gate). QVQLVESGGCLVQAGGSLRLSCAASGSTFYDYDMGWYRQAPGKERELVAAISSSVSTYYADSVKGRFTISRDNAKNTVYFQMNSLKPEDTAVYYCAADYTGVWRYDYWGQGTQVTVSS
low polyreactivity

Data request, read-out polyreactivity (PSR sort gate), for QVQLVESGGGLVQAGGSLRLSCAASGSIFYPNAMGWYRQAPGKERELVAVITGGATTYYADSVKGRFTISRDNAKNTVYLQMNSLKPEDTAVYYCAADSAENVYRGYYWGQGTQVTVSS
low polyreactivity

Recorded polyreactivity (PSR sort gate) of QVQLVESGGGLVHAGCSLRLSCAASGFFFDYNAMGWYRQAPGKERELVAAISISGGGTYYADSVKGRFTISRDNAKNTVYLQKNSLKPEDTAVYYCAAAGIGGGGWGQGTQVTVSS , please.
low polyreactivity

Give the measured polyreactivity (PSR sort gate) of QVQLVESGGGLVQAGGSLRLSCAASGRTFLVYAMGWYRQPPGTERELVAAITSGGSTYYADSVKGRFTISRDNAKNTVYLQMNSLKPEDTAVYYCAAKIRGYPRRRYDYWGQGTQVTVSS .
high polyreactivity

Which polyreactivity (PSR sort gate) reading was recorded for the sequence QVQLVESGGGLVQAGGSLRLSCAASGRIFNKNAMGWYRQPPGKEREFVAAISRSGGRTYYADSVKGRFTISRDNAKNTVYLQMNSLKPEDPAVYFCAAEYRGVPRVVVDYDYWGQGTQVTVSS ?
high polyreactivity
